Data provenance is patent US9382254B2.

molecular target: CFTR ΔF508 mutant (Homo sapiens, UniProt P13569, DEL508-508); construct: expressed in transfected cells; host or cells: CFBE41o- (adenoviral transduction); test: YFP-halide influx assay for the CFTR-ΔF508 mutation, gluconate buffer; type: cell-based; conditions: CFBE41o- cells, forskolin 10.67 μM
Sequence (P13569 with tags, fused parts or gaps DEL508-508): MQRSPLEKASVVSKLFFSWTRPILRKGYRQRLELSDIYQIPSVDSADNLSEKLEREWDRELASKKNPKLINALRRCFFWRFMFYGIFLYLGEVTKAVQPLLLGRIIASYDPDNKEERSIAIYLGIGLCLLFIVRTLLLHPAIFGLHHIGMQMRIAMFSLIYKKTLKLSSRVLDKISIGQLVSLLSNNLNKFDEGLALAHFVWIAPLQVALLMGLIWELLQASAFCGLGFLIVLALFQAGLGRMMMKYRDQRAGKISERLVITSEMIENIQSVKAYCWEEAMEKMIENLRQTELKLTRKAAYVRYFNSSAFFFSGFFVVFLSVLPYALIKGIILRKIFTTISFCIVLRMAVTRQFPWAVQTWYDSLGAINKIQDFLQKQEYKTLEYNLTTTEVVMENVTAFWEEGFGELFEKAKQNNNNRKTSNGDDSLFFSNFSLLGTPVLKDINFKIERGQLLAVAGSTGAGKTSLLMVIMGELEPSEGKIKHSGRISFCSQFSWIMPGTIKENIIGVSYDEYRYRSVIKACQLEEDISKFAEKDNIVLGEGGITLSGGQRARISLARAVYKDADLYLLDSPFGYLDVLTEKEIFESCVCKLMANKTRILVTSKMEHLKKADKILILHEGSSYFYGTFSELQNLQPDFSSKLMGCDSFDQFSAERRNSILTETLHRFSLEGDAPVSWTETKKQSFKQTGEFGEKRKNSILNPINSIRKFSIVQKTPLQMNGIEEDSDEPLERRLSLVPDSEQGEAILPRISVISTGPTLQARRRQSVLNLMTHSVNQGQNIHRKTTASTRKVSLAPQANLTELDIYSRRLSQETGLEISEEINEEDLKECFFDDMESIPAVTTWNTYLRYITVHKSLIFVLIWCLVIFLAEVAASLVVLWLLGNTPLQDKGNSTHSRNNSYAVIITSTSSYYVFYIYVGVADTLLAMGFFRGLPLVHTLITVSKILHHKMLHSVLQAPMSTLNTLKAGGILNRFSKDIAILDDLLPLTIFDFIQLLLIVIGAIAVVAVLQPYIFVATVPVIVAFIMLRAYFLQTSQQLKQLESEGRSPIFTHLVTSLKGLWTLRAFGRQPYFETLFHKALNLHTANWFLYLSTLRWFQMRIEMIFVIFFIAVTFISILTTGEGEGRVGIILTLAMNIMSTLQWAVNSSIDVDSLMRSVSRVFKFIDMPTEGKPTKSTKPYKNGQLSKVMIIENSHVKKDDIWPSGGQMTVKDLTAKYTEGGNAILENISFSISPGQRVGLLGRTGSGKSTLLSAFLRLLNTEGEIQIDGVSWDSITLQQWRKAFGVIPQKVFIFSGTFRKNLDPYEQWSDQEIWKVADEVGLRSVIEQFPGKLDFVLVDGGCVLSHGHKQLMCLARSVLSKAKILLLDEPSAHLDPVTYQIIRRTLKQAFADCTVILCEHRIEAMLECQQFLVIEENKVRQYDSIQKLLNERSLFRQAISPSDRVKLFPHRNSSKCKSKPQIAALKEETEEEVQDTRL
MEASUREMENT KIND: EC50 (nM)

| COMPOUND | ASSAY RESULT |
| --- | --- |
| CCS(=O)(=O)c1cc(C(N)=O)c(NC(=O)c2ccccc2F)s1 [Compound 128] | 400 |
| COc1cc(Nc2ccccc2)ccc1C(=O)Nc1sc(S(=O)(=O)N2CCOCC2)cc1C(N)=O [Compound 70] | 921 |
| NC(=O)c1cc(S(=O)(=O)N2CCCCC2)sc1NC(=O)c1ccc2ncsc2c1 [Compound 12] | 887 |
| CN(Cc1ccc(F)cc1)S(=O)(=O)c1cc(C(N)=O)c(NC(=O)c2ccccc2F)s1 [Compound 106] | 213 |
| NC(=O)c1cc(S(=O)(=O)N2CCCC2)sc1NC(=O)c1cc[nH]n1 [Compound 56] | 206 |
| CN(C)C1CCN(S(=O)(=O)c2cc(C(N)=O)c(NC(=O)c3ccccc3F)s2)CC1 [Compound 174] | 2370 |
| N#Cc1ccccc1C(=O)Nc1sc(S(=O)(=O)N2CCCCC2)cc1C(N)=O [Compound 25] | 945 |
| NC(=O)c1cc(S(=O)(=O)N2CCOCC2)sc1NC(=O)c1ccc(F)cc1F [Compound 138] | 313 |

a: CS(=O)(=O)c1cc(C(N)=O)c(NC(=O)c2ccccc2O)s1 [Compound 211]
b: Cc1c(S(=O)(=O)N2CCOCC2)sc(NC(=O)c2ccccc2F)c1C(N)=O [Compound 85]
Lookup: // compare measured EC50, left a , right b , return larger The response must carry the label of the picked entry.
Found: a
(a: 320 nM, b: 114 nM)

a: NC(=O)c1cc(S(=O)(=O)N2CCCCC2)sc1NC(=O)c1ccc(-c2cccnc2)s1 [Compound 64]
b: NC(=O)c1cc(S(=O)(=O)N2CCOCC2)sc1NC(=O)c1cccc(C2CC2)c1 [Compound 134]
c: NC(=O)c1cc(S(=O)(=O)N2CCC(F)(F)CC2)sc1NC(=O)c1cc[nH]n1 [Compound 140]
d: CC(C)(C)C(=O)Nc1sc(S(=O)(=O)c2ccc(F)c(F)c2)cc1C(N)=O [Compound 120]
e: CCc1cc(C(=O)Nc2sc(S(=O)(=O)N3CCOCC3)cc2C(N)=O)n[nH]1 [Compound 69]
Lookup: Number of compounds to sort: 5. Sort criterion: EC50, ascending. Answer by listing the labels in the requested order.
Found: c, e, d, b, a
(c: 29.3 nM, e: 147 nM, d: 488 nM, b: 946 nM, a: 2160 nM)

P: CN(Cc1ccccc1)S(=O)(=O)c1cc(C(N)=O)c(NC(=O)C2(c3ccc4c(c3)OC(F)(F)O4)CC2)s1 [Compound 71]
Q: NC(=O)c1cc(S(=O)(=O)N2CCCCC2)sc1NC(=O)c1cnn2ccccc12 [Compound 60]
Lookup: // compare measured EC50, left P , right Q , return larger The response must carry the label of the picked entry.
Found: Q

----------
molecular target: CFTR-R117H (Homo sapiens, UniProt P13569, R117H); experiment: YFP-halide influx assay for the CFTR-R117H
Sequence (P13569 whole entry R117H): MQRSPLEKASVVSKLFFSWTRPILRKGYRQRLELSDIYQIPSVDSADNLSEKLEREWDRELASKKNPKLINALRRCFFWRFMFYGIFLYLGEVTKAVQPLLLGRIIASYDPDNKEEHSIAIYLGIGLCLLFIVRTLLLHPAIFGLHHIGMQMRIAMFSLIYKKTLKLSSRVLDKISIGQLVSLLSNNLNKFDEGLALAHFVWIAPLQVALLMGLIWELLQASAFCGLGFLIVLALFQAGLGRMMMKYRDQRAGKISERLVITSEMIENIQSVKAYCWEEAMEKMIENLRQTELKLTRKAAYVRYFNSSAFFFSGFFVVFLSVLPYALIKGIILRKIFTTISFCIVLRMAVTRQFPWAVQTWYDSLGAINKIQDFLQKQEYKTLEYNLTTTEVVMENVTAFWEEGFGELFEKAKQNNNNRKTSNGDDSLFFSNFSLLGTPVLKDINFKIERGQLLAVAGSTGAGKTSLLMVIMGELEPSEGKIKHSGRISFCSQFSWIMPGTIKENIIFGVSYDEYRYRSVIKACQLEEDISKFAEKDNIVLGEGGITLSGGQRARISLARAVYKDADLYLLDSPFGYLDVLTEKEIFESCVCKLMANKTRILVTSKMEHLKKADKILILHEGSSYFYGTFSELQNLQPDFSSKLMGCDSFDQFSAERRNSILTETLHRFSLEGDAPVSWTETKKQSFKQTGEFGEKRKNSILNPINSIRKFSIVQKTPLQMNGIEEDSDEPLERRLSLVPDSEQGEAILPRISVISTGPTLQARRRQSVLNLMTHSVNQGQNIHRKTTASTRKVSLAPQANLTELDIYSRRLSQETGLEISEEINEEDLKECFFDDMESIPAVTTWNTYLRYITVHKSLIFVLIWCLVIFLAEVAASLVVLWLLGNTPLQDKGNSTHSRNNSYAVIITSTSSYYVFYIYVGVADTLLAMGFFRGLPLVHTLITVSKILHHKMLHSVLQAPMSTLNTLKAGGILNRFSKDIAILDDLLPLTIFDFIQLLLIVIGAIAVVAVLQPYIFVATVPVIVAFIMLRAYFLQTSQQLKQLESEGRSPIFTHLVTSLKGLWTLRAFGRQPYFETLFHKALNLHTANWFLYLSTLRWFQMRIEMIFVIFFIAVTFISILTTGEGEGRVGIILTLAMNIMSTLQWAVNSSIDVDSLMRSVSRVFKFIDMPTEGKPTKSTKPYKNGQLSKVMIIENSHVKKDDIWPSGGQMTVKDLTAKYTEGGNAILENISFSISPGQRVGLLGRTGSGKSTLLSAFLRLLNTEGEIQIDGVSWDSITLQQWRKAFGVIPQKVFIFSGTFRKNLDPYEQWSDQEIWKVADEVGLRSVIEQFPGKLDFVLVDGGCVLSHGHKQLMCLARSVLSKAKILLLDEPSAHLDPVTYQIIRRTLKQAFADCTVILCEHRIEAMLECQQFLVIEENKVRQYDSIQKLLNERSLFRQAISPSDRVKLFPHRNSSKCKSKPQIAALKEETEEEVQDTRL
MEASUREMENT KIND: EC50 (nM)

| COMPOUND | READOUT UNITS | EC50 |
| --- | --- | --- |
| CN(Cc1ccccc1)S(=O)(=O)c1cc(C(N)=O)c(NC(=O)c2ccn[nH]2)s1 | nM | 168 |
| CC(C)(O)C(=O)Nc1sc(S(=O)(=O)c2cccc(C(F)(F)F)c2)cc1C(N)=O | nM | 535 |
| CC(CO)C(=O)Nc1sc(S(=O)(=O)c2ccc(C(F)(F)F)cc2)cc1C(N)=O (centres unmarked) | nM | 142 |

a: COc1ccc(OC(F)(F)F)c(S(=O)(=O)c2cc(C(N)=O)c(NC(=O)C(C)(C)O)s2)c1
b: NC(=O)c1cc(S(=O)(=O)c2ccc(OC(F)(F)F)cc2F)sc1NC(=O)C1(CO)CC1
Lookup: // compare measured EC50, left a , right b , return larger The response must carry the label of the picked entry.
Found: b

----------
biological target: CFTR-G1349D (Homo sapiens, UniProt P13569, G1349D); construct: expressed in transfected cells; experiment: YFP-halide influx assay for the CFTR-G1349D; type: cell-based
Sequence (P13569 whole entry G1349D): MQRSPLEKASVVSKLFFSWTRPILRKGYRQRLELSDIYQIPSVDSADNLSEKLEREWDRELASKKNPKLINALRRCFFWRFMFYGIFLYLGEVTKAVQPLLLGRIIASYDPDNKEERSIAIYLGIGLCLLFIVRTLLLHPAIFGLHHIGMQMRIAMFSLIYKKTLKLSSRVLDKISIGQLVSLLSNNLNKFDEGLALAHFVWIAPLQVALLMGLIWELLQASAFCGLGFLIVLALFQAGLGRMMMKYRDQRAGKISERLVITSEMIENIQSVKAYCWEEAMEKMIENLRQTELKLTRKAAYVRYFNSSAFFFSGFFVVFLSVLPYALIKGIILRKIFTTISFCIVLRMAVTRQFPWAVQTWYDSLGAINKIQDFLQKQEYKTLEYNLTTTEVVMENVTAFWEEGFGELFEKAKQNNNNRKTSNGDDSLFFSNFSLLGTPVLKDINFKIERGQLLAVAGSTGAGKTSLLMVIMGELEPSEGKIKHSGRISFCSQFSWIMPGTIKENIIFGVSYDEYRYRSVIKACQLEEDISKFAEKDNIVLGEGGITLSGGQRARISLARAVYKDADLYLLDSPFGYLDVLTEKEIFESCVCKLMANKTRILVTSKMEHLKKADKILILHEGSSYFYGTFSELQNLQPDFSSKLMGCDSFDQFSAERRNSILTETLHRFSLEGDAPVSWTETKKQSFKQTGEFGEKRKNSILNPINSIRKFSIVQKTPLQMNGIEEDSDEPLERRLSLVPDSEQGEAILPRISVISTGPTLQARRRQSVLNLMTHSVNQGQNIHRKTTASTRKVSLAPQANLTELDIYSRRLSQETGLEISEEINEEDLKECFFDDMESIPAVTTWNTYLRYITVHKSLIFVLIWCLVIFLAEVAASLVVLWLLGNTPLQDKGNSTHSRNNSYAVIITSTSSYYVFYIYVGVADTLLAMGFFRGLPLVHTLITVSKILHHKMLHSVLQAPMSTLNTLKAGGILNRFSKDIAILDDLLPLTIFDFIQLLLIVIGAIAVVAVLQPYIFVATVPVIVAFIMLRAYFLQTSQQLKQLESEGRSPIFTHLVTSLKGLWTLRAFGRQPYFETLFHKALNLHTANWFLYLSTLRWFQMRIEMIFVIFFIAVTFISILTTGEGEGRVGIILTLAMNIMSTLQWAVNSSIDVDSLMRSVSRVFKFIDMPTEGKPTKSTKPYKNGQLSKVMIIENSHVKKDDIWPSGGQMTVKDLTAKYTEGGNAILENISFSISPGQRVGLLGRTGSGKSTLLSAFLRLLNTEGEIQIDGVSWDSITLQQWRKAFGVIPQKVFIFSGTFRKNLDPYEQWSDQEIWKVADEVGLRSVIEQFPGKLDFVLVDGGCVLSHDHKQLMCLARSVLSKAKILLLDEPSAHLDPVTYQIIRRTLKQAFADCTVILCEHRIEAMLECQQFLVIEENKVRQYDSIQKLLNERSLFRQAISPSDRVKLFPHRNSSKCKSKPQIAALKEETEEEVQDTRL
MEASUREMENT KIND: EC50 (nM)

| COMPOUND | EC50 (nM) |
| --- | --- |
| COc1cc(S(=O)(=O)c2cc(C(N)=O)c(NC(=O)C(C)(C)O)s2)c(OC(F)F)cn1 | 18.4 |
| NC(=O)c1cc(S(=O)(=O)c2ccccc2OC(F)(F)F)sc1NC(=O)C1(CO)CC1 | 31.6 |
| CC(C)(O)C(=O)Nc1sc(S(=O)(=O)c2cc(Cl)cc(C(F)(F)F)c2)cc1C(N)=O | 229 |
| Cc1cc(C(F)(F)F)cc(S(=O)(=O)c2cc(C(N)=O)c(NC(=O)C(C)(C)O)s2)c1 | 3330 |
| CC(O)C(=O)Nc1sc(S(=O)(=O)c2cc(F)ccc2Cl)cc1C(N)=O (centres unmarked) | 847 |

I: CC(C)(O)C(=O)Nc1sc(S(=O)(=O)c2ncc(C(F)(F)F)cc2F)cc1C(N)=O
II: CC(C)(O)C(=O)Nc1sc(S(=O)(=O)c2ncccc2C(F)(F)F)cc1C(N)=O
III: CC(C)(O)C(=O)Nc1sc(S(=O)(=O)c2ccc(F)cc2Cl)cc1C(N)=O
IV: CC(C)(O)C(=O)Nc1sc(S(=O)(=O)c2cnc(C(F)(F)F)nc2)cc1C(N)=O
V: CC(C)(O)C(=O)Nc1sc(S(=O)(=O)c2cccc(C(F)(F)F)n2)cc1C(N)=O
Lookup: Sequence the entries by EC50, beginning with the highest number. Answer by listing the labels in the requested order.
Found: IV, II, V, III, I

----------
molecular target: CFTR ΔF508 mutant (Homo sapiens, UniProt P13569, DEL508-508); construct: expressed in transfected cells; host or cells: CFBE41o- (adenoviral transduction); assay: YFP-halide influx assay for the CFTR-ΔF508 mutation (384 well, FDSS/μCell); format: cell-based; conditions: CFBE41o- cells, CFTR-ΔF508, 1×D-PBS, fluorescence after 36 seconds
MEASUREMENT KIND: EC50 (nM)

Worked cases, EC50 given:
| COMPOUND | READOUT UNITS | EC50 |
| --- | --- | --- |
| CC(C)(O)C(=O)Nc1sc(S(=O)(=O)c2ccc(C(F)(F)F)c(F)c2)cc1C(N)=O | nM | 15.3 |
| CC(C)C(O)C(=O)Nc1sc(S(=O)(=O)c2ccc(F)cc2)cc1C(N)=O (centres unmarked) [Compound 341] | nM | 20.2 |
| CC(C)(O)C(=O)Nc1sc(S(=O)(=O)c2ccc(C(F)(F)F)cn2)cc1C(N)=O | nM | 28.5 |
| CC(C)(O)C(=O)Nc1sc(S(=O)(=O)c2nc(CO)ccc2C(F)(F)F)cc1C(N)=O | nM | 216 |

A: CC(C)(O)C(=O)Nc1sc(S(=O)(=O)c2cc(F)ccc2CC(F)(F)F)cc1C(N)=O
B: CC(C)S(=O)(=O)c1cc(C(N)=O)c(NC(=O)c2ccccc2O)s1
C: CC(C)CC(O)C(=O)Nc1sc(S(=O)(=O)c2ccc(F)cc2)cc1C(N)=O (centres unmarked)
D: CN(C)c1cccc(S(=O)(=O)c2cc(C(N)=O)c(NC(=O)C(C)(C)O)s2)c1
Lookup: Number of compounds to sort: 4. Sort criterion: EC50, ascending. Answer by listing the labels in the requested order.
Found: A, B, C, D
(A: 5.4 nM, B: 24.8 nM, C: 92.4 nM, D: 182 nM)

----------
target: CFTR-G1349D (Homo sapiens, UniProt P13569, G1349D); construct: expressed in transfected cells; test: YFP-halide influx assay for the CFTR-G1349D; format: cell-based
pEC50: −log10 of the molar value.
MEASUREMENT KIND: pEC50

Worked cases, pEC50 given:
| COMPOUND | pEC50 |
| --- | --- |
| CC(C)(O)C(=O)Nc1sc(S(=O)(=O)c2ccc(OC(F)(F)F)cc2F)cc1C(N)=O | 6.84 |
| CN(Cc1ccccc1)S(=O)(=O)c1cc(C(N)=O)c(NC(=O)c2ccn[nH]2)s1 | 7.38 |
| C[C@@H](CO)C(=O)Nc1sc(S(=O)(=O)c2ccc(OC(F)(F)F)cc2)cc1C(N)=O | 7.23 |
| CC(O)C(=O)Nc1sc(S(=O)(=O)c2ccc(F)cc2Cl)cc1C(N)=O (centres unmarked) | 5.69 |
| CC(CO)C(=O)Nc1sc(S(=O)(=O)c2ccc(F)cc2Cl)cc1C(N)=O (centres unmarked) | 6.65 |

1: CC(C)(O)C(=O)Nc1sc(S(=O)(=O)c2ccc(C#N)cc2OC(F)(F)F)cc1C(N)=O
2: CC(C)(O)C(=O)Nc1sc(S(=O)(=O)c2ccc(C(F)(F)F)c(Cl)n2)cc1C(N)=O
Lookup: // compare measured pEC50, left 1 , right 2 , return larger The response must carry the label of the picked entry.
Found: 1
